Target: Phosphodiesterase 3 (Homo sapiens, UniProt Q14432+Q13370)
Test: Inhibition of PDE3 at 10 uM by Biomol Green quantizyme assay system
Format: protein assay
Would you kindly list inhibition for each of these compounds?
One number for each entry, in %.

Below are worked cases with known answers.
chem smiles: CCOC(=O)c1cc(Cc2ccc(Cl)cc2Cl)c(=O)[nH]c1C
value unit: %
inhibition: 35.4

chem smiles: CCOC(=O)c1cc(Cc2cccc(Cl)c2)c(=O)[nH]c1C
value unit: %
inhibition: 56.9

chem smiles: COC(=O)c1cc(Cc2ccccc2Cl)c(=O)[nH]c1C
value unit: %
inhibition: 87.7

chem smiles: CCOC(=O)c1cc(Cc2ccc(C)cc2)c(=O)[nH]c1C
value unit: %
inhibition: 35.4

chem smiles: CCOC(=O)c1cc(Cc2cccc(Cl)c2)c(=O)[nH]c1-c1ccccc1
value unit: %
inhibition: 20

Shifting focus to the compound that follows.
What value of inhibition has been reported for the following compound? Cc1[nH]c(=O)c(C#N)cc1-c1ccncc1
91.7

Attribution: ChEMBL document CHEMBL2069260
